- Tested on: MCF7 3D spheroids
- Assay Name: Cytotoxicity on MCF7 3D multicellular spheroids (acid phosphatase method)
- Conditions Used: Homo sapiens, MCF7, 120 h, read-out: Mean of % cytotoxicity ± S.D
Please use the following cytotoxicity at 50 µM ranges when assigning a class: low = under 40%, mid = from 40% up to 60%, high = 60% and over

Which band does `CCOC(=O)c1c(NS(=O)(=O)c2cccc3nsnc23)sc(C)c1C` fall in?
high

Please give the result for `CCOC1=NC(=Cc2[nH]c(OCC)c(CC(=O)OC)c2C(=O)OC)C(C(=O)OC)=C1CC(=O)OC` too.
low

Please give the result for `Cc1cc(C)n(-c2ccc(S(N)(=O)=O)cc2)n1` too.
mid

---

- Test system: MCF7 3D spheroids
- Assay Name: Cytotoxicity on MCF7 3D multicellular spheroids (acid phosphatase method)
- Conditions Used: Homo sapiens, MCF7, 120 h, read-out: Mean of % cytotoxicity ± S.D
Measurement Kind: cytotoxicity at 50 µM (%)
One number for each entry, in %.

COc1ccc(OCCC(=O)NNC(=S)Nc2cc(Cl)ccc2Cl)cc1 [F06]
88
Cc1ccc2[nH]c(SCC(=O)NC3Cc4ccccc4C3)nc2c1 [H03]
15.8
O=C1C2CCN(CC2)C1CSc1ccc(Cl)cc1 (stereo not shown) [F02]
52
c1cc2c(cc1N=C1SCC3CCCCN13)OCO2 (stereo not shown) [B08]
53.1
Cc1c(NCN2C(=O)CCC2=O)cc2c(c1[N+](=O)[O-])C(C)(C)CC2(C)C [G09]
66.5

Return reported cytotoxicity at 50 µM values for all items listed beneath this line.
1. CCCc1cc(=O)oc2cc(OC(C)C(=O)NNS(=O)(=O)c3cccc(C(F)(F)F)c3)ccc12 (stereo not shown) [D11]
2. Cc1ccc(OCC(O)CN2CCC(C(N)=O)CC2)c([N+](=O)[O-])c1 (stereo not shown) [D09]
3. CC(C)=NOC(=O)c1scc(S(C)(=O)=O)c1Cl [B07]
4. CC(=O)Cc1nsc(Nc2ccccc2)n1 [B06]
5. CCCS(=O)(=O)c1cscc1NC(=O)c1c(-c2c(F)cccc2Cl)noc1C [A10]

1. 40.6
2. 50
3. 34.9
4. 20.4
5. 68.6

---

- System: MCF7 3D spheroids
- Assay Name: Cytotoxicity on MCF7 3D multicellular spheroids (acid phosphatase method)
- Conditions Used: Homo sapiens, MCF7, 120 h, read-out: Mean of % cytotoxicity ± S.D
Record form. Attribute: cytotoxicity at 50 µM. Fill in for each entry.
Answers are plain numbers, in %.

Solved cases (3 shown):
O=C1C(=C2NC(c3ccccn3)C3C(=O)N(c4ccc(OC(F)(F)F)cc4)C(=O)C23)C(=O)c2ccccc21 (centres unmarked)
60.3
Cn1ccnc1SCC(=O)Nc1ccc(C(C)(C)C)cc1
28.6
Cc1ccc(S(=O)(=O)CCNC(=O)c2c(-c3c(Cl)cccc3Cl)noc2C)cc1
54.2

Return reported cytotoxicity at 50 µM values for all items listed beneath this line.
1. Cc1c(C)c(C)c2[nH]c(-c3ccc4c(c3)OCO4)nc2c1C
2. O=C(Nc1cc(-c2ccccc2)n[nH]1)C1COc2ccccc2O1 (centres unmarked)
3. O=C(Nc1ccc2c(c1)COCO2)c1cc2ccccc2oc1=O

1: 67.9; 2: 52.2; 3: 28

Return reported cytotoxicity at 50 µM values for all items listed beneath this line.
1. O=[N+]([O-])c1ccc(N2CCC(n3cccc3)CC2)cc1
2. COc1cc(-n2c(SC)nc3ccccc3c2=O)c(OC)cc1Cl
3. CCOC(=O)c1cnn(C(=O)c2snnc2C)c1N
4. N#CC1(c2ccccc2)N=C2C=CC=CN2N=C1c1ccccc1 (centres unmarked)
5. ON=Cc1ccc(-c2ccccc2OC(F)(F)F)o1
6. NS(=O)(=O)c1cccc(NC(=O)c2cccnc2Oc2ccccc2)c1
7. CCOc1nc2ccccc2nc1OCC

43.1
67.1
49
55
54.4
35.1
42

Param readout= cytotoxicity at 50 µM; system= MCF7 3D spheroids; entry= `FC(F)(F)c1ccnc(NCc2ccco2)n1` ; returns value.
68.5
